Target: CYP2E1 (Homo sapiens, UniProt P05181)
Sequence (P05181 whole entry): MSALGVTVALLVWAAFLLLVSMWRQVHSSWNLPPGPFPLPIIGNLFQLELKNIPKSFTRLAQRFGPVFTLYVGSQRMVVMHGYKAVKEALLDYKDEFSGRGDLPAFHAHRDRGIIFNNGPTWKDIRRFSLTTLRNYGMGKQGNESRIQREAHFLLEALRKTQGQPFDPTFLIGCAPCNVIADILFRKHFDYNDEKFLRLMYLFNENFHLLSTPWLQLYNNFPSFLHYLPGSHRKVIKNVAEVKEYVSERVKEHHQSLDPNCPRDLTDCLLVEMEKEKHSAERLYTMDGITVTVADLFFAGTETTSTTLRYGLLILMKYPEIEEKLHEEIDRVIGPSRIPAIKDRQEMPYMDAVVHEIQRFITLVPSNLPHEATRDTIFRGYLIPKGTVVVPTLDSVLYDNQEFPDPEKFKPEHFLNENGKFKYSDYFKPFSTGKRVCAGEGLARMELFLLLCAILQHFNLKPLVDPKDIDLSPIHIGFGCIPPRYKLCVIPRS
Assay: CYP2E1 baculosome pNP hydroxylation
Assay type: biochemical
Settings: Ki Noncompetitive, calculated from IC50 (website)
observable: Ki (µM)
One number for each entry, in µM.

Data request, read-out Ki, for CCc1oc2ccccc2c1C(=O)c1ccc(O)cc1
71

* * *

Target: CYP2E1 (Homo sapiens)
Test: CYP2E1 baculosome pNP hydroxylation
Type: biochemical
Conditions: Ki Competitive, Cheng-Prusoff from IC50, KM 14 µmol/L
observable: pKi
One number for each entry, as −log10 of the molar value.

Data request, read-out pKi, for CCc1oc2ccccc2c1C(=O)c1ccc(O)cc1
5.06
